- Tested on: Plasmodium berghei
- test name: Antimalarial activity in Plasmodium berghei infected mice (Mus musculus) after subcutaneous 640 mg/kg dose
- Assay type: functional
For each entry below, report its No. of cured mice value.
Returns: the value as a bare number; no unit string appended.

Noted for COc1ccc(C2C/C(=N\CCCN(C)C)c3c(n(O)c4ccc(Cl)cc4c3=O)C2)cc1 (centres undefined) : its No. of cured mice reads 3

Per the records, this molecule ( OCCNCC/N=C1\CC(c2ccc(Cl)cc2Cl)Cc2nc3ccc(Cl)cc3c(O)c21 (centres undefined) ) has No. of cured mice equal to 5

The molecule CCN(CC)CC/N=C1\CC(c2ccc(C(F)(F)F)cc2)Cc2nc3ccc(Cl)cc3c(O)c21 (centres undefined) showed No. of cured mice equal to 5

Documented No. of cured mice of O=C1CC(c2ccc(C(F)(F)F)cc2)Cc2nc3ccccc3c(O)c21 (centres undefined) : 5

No. of cured mice in this record for CCCCNC(CC)C/N=C1\CC(c2cccc(C(F)(F)F)c2)Cc2c1c(=O)c1cc(Cl)ccc1n2O (centres undefined) : 5

In plain terms, CCN(CC)CCCC(C)/N=C1\CC(c2ccc(Cl)cc2Cl)Cc2nc3ccc(Cl)cc3c(O)c21 (centres undefined) has a documented No. of cured mice of 5

Sure, the documented No. of cured mice for Oc1c2c(nc3ccc(Cl)cc13)CC(c1ccc(Cl)cc1Cl)C/C2=N\CCCN1CCCC1 (centres undefined) is 5

O=C1CC(c2c(Cl)cccc2Cl)Cc2c1c(=O)c1cc(Cl)ccc1n2O (centres undefined) yielded No. of cured mice of 2

Measured No. of cured mice, O=C1CC(c2cccc(C(F)(F)F)c2)Cc2c1c(=O)c1cc(Cl)ccc1n2O (centres undefined) : 5

No. of cured mice measured on COc1ccccc1C1C/C(=N\CCCN(C)C)c2c(nc3ccc(Cl)cc3c2O)C1 (centres undefined) = 2

# molecule CCN1CCCC(/N=C2\CC(c3ccc(Cl)c(Cl)c3)Cc3c2c(=O)c2cc(Cl)ccc2n3O)C1 (centres undefined) ; its No. of cured mice = 5

# molecule CN1CCN(CCC/N=C2\CC(c3ccc(Cl)c(Cl)c3)Cc3c2c(=O)c2cc(Cl)ccc2n3O)CC1 (centres undefined) ; its No. of cured mice = 5

Sure, the documented No. of cured mice for CCCCNC(CC)C/N=C1\CC(c2ccc(Cl)cc2Cl)Cc2nc3ccc(Cl)cc3c(O)c21 (centres undefined) is 5

The molecule COCCC/N=C1\CC(c2cccc(C(F)(F)F)c2)Cc2c1c(=O)c1cc(Cl)ccc1n2O (centres undefined) showed No. of cured mice equal to 5

No. of cured mice for CN(C)CCC/N=C1\CC(c2ccc(C(F)(F)F)cc2)Cc2nc3ccc(Cl)cc3c(O)c21 (centres undefined) is 2

# No. of cured mice (molecule: O=C1CC(c2ccc([N+](=O)[O-])cc2)Cc2nc3ccc(Cl)cc3c(O)c21 (centres undefined) ) is 2

The molecule listed as CN(C)CCC/N=C1\CC(c2cccc(Br)c2)Cc2c1c(=O)c1cc(Cl)ccc1n2O (centres undefined) shows No. of cured mice equal to 5

Just so you know, measured No. of cured mice for CC(C/N=C1\CC(c2cccc(C(F)(F)F)c2)Cc2c1c(=O)c1cc(Cl)ccc1n2O)N(C)C (centres undefined) came out at 5

Consider O=C1CC(c2ccc(F)cc2)Cc2c1c(=O)c1cc(Cl)ccc1n2O (centres undefined) . Its measured No. of cured mice is 5
